Hi there, I'd appreciate the recorded Blocking fold after conjugation for every entry that follows.
TARGET_OR_SYSTEM: T1, CD3 (antigen of the anti-CD3 antibody, coated in the ELISA of Examples 1-3) (Homo sapiens (Human), UniProt P07766 23-126)
T1 construct: also called antibody antigen
T1 sequence (P07766 23-126 limits assumed, form in doubt): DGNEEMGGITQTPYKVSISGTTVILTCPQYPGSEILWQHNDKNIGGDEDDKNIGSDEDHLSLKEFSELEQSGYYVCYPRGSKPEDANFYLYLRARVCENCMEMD
EXPERIMENT_DESCRIPTION: binding activity after conjugation with different R1; method not described (presumably ELISA)
Please reply with the bare figure in fold and do not write the unit itself.

Look up Blocking fold after conjugation: CD3 antibody VH-Y61C conjugated through the cleavable linker peptide with R1 = PEG10K (Table 3) (antibody, V domains shown, Cys 61 conjugated with cleavable linker peptide P carrying blocker PEG10K, also called VH-61 Y61C PEG10K) VH: EVQLVESGGGLVQPGGSLRLSCAASGFTFSTYAMNWVRQAPGKGLEWVGRIRSKYNNYATCYADSVKDRFTISRDDSKNSLYLQMNSLKTEDTAVYYCARHGNFGNSYVSWFAYWGQGTLVTVSS VL: QTVVTQEPSLTVSPGGTVTLTCRSSTGAVTTSNYANWVQQKPGQAPRGLIGGTNKRAPGVPARFSGSLLGDKAALTLLGAQPEDEAEYFCALWYSNLWVFGGGTKLTVL
20

And for CD3 antibody VH-Y61C conjugated through the cleavable linker peptide with R1 = PEG20K (Table 3) (antibody, V domains shown, Cys 61 conjugated with cleavable linker peptide P carrying blocker PEG20K, may be the same molecule as m19 (same value 400) or as CD3-Her2+20k; also called VH-61 Y61C PEG20K) VH: EVQLVESGGGLVQPGGSLRLSCAASGFTFSTYAMNWVRQAPGKGLEWVGRIRSKYNNYATCYADSVKDRFTISRDDSKNSLYLQMNSLKTEDTAVYYCARHGNFGNSYVSWFAYWGQGTLVTVSS VL: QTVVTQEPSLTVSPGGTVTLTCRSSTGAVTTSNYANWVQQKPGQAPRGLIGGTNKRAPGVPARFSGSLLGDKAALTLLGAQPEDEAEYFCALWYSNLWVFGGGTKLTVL ?
400

And for CD3 antibody VH-Y61C conjugated through the cleavable linker peptide with R1 = PEG40K (Table 3) (antibody, V domains shown, Cys 61 conjugated with cleavable linker peptide P carrying blocker PEG40K, also called VH-61 Y61C PEG40K) VH: EVQLVESGGGLVQPGGSLRLSCAASGFTFSTYAMNWVRQAPGKGLEWVGRIRSKYNNYATCYADSVKDRFTISRDDSKNSLYLQMNSLKTEDTAVYYCARHGNFGNSYVSWFAYWGQGTLVTVSS VL: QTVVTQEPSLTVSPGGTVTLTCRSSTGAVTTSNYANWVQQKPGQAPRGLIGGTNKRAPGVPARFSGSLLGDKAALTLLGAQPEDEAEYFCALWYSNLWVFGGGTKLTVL ?
500

And for CD3 antibody VH-Y61C conjugated through the cleavable linker peptide with R1 = PEG5K (Table 3) (antibody, V domains shown, Cys 61 conjugated with cleavable linker peptide P carrying blocker PEG5K, also called VH-61 Y61C PEG5K) VH: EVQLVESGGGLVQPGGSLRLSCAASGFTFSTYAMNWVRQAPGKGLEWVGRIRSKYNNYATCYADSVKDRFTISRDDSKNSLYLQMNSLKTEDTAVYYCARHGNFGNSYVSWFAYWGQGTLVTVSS VL: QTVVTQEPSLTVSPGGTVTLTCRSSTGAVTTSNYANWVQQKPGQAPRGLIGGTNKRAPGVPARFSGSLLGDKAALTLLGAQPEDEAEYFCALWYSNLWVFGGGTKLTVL ?
10
